Reference for the values: ChEMBL document CHEMBL3433997

Target: Solute carrier family 2, facilitated glucose transporter member 1 (Homo sapiens) (UniProt P11166)
Sequence (P11166 whole entry): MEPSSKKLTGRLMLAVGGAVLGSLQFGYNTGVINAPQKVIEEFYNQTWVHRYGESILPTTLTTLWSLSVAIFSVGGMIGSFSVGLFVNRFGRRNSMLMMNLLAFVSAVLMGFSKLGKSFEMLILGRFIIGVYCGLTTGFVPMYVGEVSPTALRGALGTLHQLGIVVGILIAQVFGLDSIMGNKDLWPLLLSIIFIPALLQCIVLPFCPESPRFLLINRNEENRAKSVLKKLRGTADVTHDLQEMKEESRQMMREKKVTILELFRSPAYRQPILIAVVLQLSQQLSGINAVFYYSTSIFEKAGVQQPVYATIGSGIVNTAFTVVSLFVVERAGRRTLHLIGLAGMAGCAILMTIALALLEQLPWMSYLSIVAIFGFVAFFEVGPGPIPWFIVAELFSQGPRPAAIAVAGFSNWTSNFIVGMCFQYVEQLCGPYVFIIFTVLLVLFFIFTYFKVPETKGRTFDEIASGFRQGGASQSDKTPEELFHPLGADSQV
Test: ST_JUDE_LEISH: Cytotoxicity at 2uM final concentration against transgenic Leishmania Mexicana promastigotes LmGLUT1 that are glucose transport deficient and complemented with the human glucose transporter GLUT1. Activity is measured by DNA content using SYBR green in vitro
Type: functional
Answer No if inhibition is under 3%, and Yes if it is 3% or more.

A selection of reference data follows.
{"Molecule": "CCCCC(=O)NC(c1cccs1)c1cc(Cl)c2cccnc2c1O (stereo not given)", "Class label": "Yes"}
{"Molecule": "Cc1cc(N[C@@H](Cc2ccccc2)C(=O)NCc2cccs2)nc(Nc2ccccc2)n1", "Class label": "Yes"}
{"Molecule": "O=C(Nc1cccc(-c2ccc(-c3nc4cc(C(F)(F)F)ccc4[nH]3)cc2)c1)c1cccnc1", "Class label": "Yes"}

Decide: inhibition of COc1ccc(NC(=O)c2cn(-c3ccc(C(C)(C)C)cc3)nc2C)cc1N1CCN(C)CC1 >= 3%?
No

Form field: inhibition at least 3%? Entry: CC1CC(C)CN(S(=O)(=O)c2cc(C(=O)Nc3cccc([N+](=O)[O-])c3)ccc2Br)C1 (stereo not given)
Yes

// inclusive: inhibition at least 3%? input: Cc1cc(N2CCCCC2)nc2ccc(NC(=O)c3cc(=O)c4ccccc4o3)cc12
Yes

Textbook exercise: given the entry COC(=O)c1ccc2c(-c3nc4ccc(OC)cc4[nH]3)c[nH]c2c1 , state whether its inhibition is greater than or equal to 3%.
Yes

Reported inhibition at or above 3%? CCCC(C)Nc1nc(C)cc(N[C@@H](CC(C)C)C(=O)Nc2ccc(OC)cc2)n1 (stereo not given in full)
Yes

hey, is inhibition for this one >= 3%? CCN(CC)CCN(Cc1ccc(-c2ccc(C(F)(F)F)cc2)cc1)C(=O)Cn1c(CCc2c(F)ccc(F)c2F)nc(=O)c2ccccc21
No

Could you please find out whether O=C(Nc1ccc2c(c1)OCO2)NC1CCN(c2ccnc(Nc3ccc(F)cc3)n2)C1 (stereo not given) has inhibition that meets 3% or exceeds it?
No

Evaluate COc1ccc2nccc([C@@H](O)CN3CCC(NC(=O)c4[nH]c5ccccc5c4-c4ccccc4)CC3)c2c1 : inhibition at minimum 3%?
Yes

Has O=C(Nc1nccs1)c1cc(-c2cccnc2)nc2ccc(Br)cc12 a recorded inhibition greater than or equal to 3%?
Yes
